Assay comment: Volume of distribution at steady state in female C57BL/6J mouse at 2 mg/kg, iv measured after 24 hrs by UPLC-MS/MS analysis
Type: ADME, organism-based
Condition set: in vivo, read-out: Vdss
Friendly reminder: Vd below 0.3 L/kg is Met, at or above is Not met.

See these solved cases before continuing.
> print(dat)
                            molecule.smiles  class.label
1  Cc1noc(-c2ccc(NC(=O)[C@H]3CCCC[C@@H]3C(=O)O)cn2)c1NC(=O)O[C@H](C)c1ccccc1Cl          Met
2  Cc1nc(-c2nnn(C)c2NC(=O)O[C@H](C)c2ccccc2Cl)ccc1NC(=O)[C@H]1CCCC[C@@H]1C(=O)O      Not met
3  Cc1nc(-c2onc(C)c2Nc2cncc(OC(C)C)n2)ccc1NC(=O)[C@H]1CCCC[C@@H]1C(=O)O          Met
4  Cc1nc(-c2cnn(C)c2NC(=O)O[C@H](C)c2ccccc2Cl)ccc1NC(=O)[C@H]1CCCC[C@@H]1C(=O)O      Not met
5  Cc1nc(-c2onc(C)c2NC(=O)O[C@H](C)c2ccccc2)ccc1NC(=O)[C@H]1CCCC[C@@H]1C(=O)O          Met

Continue with the compound presented below.
Ask: Item Cc1nc(-c2onc(C)c2NC(=O)O[C@H](C)c2ccccc2Cl)ccc1NC(=O)[C@H]1CCCC[C@@H]1C(=O)O : Vd beneath 0.3 L/kg, strictly?
Result: Met

====

Assay comment: Half life in female C57BL/6J mouse at 2 mg/kg, iv measured after 24 hrs by UPLC-MS/MS analysis
Type: ADME, organism-based
Condition set: in vivo
Endpoint: half-life (h)
One number for each entry, in h.

> print(dat)
                            molecule.smiles  value.observed
1  Cc1nc(-c2nnn(C)c2NC(=O)O[C@H](C)c2ccccc2Cl)ccc1NC(=O)[C@H]1CCCC[C@@H]1C(=O)O            4.19
2  Cc1noc(-c2ccc(NC(=O)[C@H]3CCCC[C@@H]3C(=O)O)cn2)c1NC(=O)O[C@H](C)c1ccccc1Cl            0.69
3  Cc1nc(-c2cnn(C)c2NC(=O)O[C@H](C)c2ccccc2Cl)ccc1NC(=O)[C@H]1CCCC[C@@H]1C(=O)O            2.48
4  Cc1nc(-c2onc(C)c2Nc2cncc(OC(C)C)n2)ccc1NC(=O)[C@H]1CCCC[C@@H]1C(=O)O            1.96
5  Cc1nc(-c2onc(C)c2NC(=O)O[C@H](C)c2ccccc2Cl)ccc1NC(=O)[C@H]1CCCC[C@@H]1C(=O)O            1.84

Okay, now this compound:
Ask: Quote half-life reported for Cc1nc(-c2onc(C)c2NC(=O)O[C@H](C)c2ccccc2)ccc1NC(=O)[C@H]1CCCC[C@@H]1C(=O)O please.
Result: 1.81

====

Assayed target: Bile salt export pump (Homo sapiens)
Sequence (O95342 whole entry): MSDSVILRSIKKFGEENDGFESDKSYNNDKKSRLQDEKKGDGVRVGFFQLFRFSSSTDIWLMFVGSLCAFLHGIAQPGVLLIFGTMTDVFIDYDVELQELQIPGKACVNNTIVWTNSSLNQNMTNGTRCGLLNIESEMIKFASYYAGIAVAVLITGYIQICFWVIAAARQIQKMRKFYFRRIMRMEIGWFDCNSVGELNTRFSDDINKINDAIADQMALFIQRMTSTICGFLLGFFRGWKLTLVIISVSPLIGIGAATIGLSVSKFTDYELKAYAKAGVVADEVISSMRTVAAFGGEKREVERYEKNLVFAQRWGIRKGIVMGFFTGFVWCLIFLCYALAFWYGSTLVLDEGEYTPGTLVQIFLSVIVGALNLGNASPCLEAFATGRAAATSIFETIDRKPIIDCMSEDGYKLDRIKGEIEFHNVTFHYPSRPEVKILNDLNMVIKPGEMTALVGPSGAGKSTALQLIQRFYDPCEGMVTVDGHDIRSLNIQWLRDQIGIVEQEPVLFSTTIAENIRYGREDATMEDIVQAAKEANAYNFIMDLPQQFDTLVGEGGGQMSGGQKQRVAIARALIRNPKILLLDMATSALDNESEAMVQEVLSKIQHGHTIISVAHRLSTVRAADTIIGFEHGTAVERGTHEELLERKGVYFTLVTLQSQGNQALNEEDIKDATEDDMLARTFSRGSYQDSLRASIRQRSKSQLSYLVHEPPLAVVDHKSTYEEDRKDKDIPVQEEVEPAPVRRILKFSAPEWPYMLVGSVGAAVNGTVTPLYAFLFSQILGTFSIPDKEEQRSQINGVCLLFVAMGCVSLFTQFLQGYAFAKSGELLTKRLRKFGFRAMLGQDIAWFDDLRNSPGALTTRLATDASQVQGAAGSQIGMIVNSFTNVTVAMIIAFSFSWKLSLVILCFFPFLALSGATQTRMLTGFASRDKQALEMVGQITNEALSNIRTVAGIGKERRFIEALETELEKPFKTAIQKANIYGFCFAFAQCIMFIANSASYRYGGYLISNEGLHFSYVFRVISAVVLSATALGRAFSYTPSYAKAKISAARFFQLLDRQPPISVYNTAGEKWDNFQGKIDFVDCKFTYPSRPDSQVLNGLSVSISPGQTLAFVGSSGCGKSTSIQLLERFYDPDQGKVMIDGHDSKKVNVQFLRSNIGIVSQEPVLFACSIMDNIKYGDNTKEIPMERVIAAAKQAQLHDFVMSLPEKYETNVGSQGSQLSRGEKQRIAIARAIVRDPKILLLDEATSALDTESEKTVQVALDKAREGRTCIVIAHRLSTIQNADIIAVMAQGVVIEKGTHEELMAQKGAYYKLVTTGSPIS
Assay comment: Inhibition of BSEP in cryopreserved sandwich-cultured human hepatocytes by measuring reduction in TCA biliary clearance using taurocholic acid as substrate
pIC50: −log10 of the molar value.
Endpoint: pIC50

> print(dat)
                            molecule.smiles  value.observed
1  Cc1nc(-c2onc(C)c2Nc2cncc(OC(C)C)n2)ccc1NC(=O)[C@H]1CCCC[C@@H]1C(=O)O          < 4.00
2  Cc1nc(-c2cnn(C)c2NC(=O)O[C@H](C)c2ccccc2Cl)ccc1NC(=O)[C@H]1CCCC[C@@H]1C(=O)O          < 4.00

Ask: Assign pIC50 to the following record: Cc1nc(-c2nnn(C)c2NC(=O)O[C@H](C)c2ccccc2Cl)ccc1NC(=O)[C@H]1CCCC[C@@H]1C(=O)O
Result: < 4.00
